tested on: NCI/ADR-RES; assay: NCI tumour cell line growth inhibition, 48 h
Calls of active or inactive are those of the source. Rule as the data show it: active = GI50 up to about 1.1 µM and inactive = higher.
Choose the fitting class; nothing outside active, inactive is accepted.

Below are worked cases with known answers.
| Compound | Label class |
| --- | --- |
| O=C1CC(O)c2c(Cl)sc(Cl)c21 (configuration not stated) | inactive |
| O=C1c2cccc3cccc(c23)C(=O)N1CCCNOCCONCCCN1C(=O)c2cccc3cccc(c23)C1=O | inactive |
| COc1ccc(C2c3c(-c4ccccc4)nn(-c4ccccc4)c3Oc3ncn(N)c(=N)c32)cc1OC (configuration not stated) | inactive |
| Cc1nc2sccn2c1C(=O)OCCOCCOCCOCCOC(=O)c1c(C)nc2sccn12 | inactive |
| O=C([O-])C[n+]1ccccc1.c1ccncc1 | inactive |
| Nc1nc(N)c(CCCCc2ccccc2)c(N)n1 | inactive |
| CC(C)CCCC(C)[C@H]1CC[C@H]2[C@@H]3CC[C@H]4C[C@@H](CCC=C(c5cc(Cl)c(O)c(C(=O)OC(C)(C)C)c5)c5cc(Cl)c(O)c(C(=O)OC(C)(C)C)c5)CC[C@]4(C)[C@H]3CC[C@]12C (some centres not stated) | inactive |
| CC(=O)Nc1ccc(Nc2cc(O)nc(O)n2)cc1 | inactive |

Can you look up the reported call for C#CCn1c(=O)c(Cl)cn(/C(=C/C(=O)OCC)C(=O)OCC)c1=O for me? inactive

Would you mind telling me which call this test gave Cc1ccc(-c2n[nH]c(=O)n2N2C(=O)C=CC2=O)cc1 ? inactive

Given O=C1Nc2ccccc2Nc2ccncc21 , state the outcome it received in this test. inactive

Hi team, can someone confirm the assay call for C/C=C1\NC(=O)[C@H]2CSSCCC=C[C@H](CC(=O)N[C@H](C(C)C)C(=O)N2)OC(=O)[C@H](C(C)C)NC1=O ? active

Could you kindly confirm the outcome this assay logged for O=C(NNC(c1ccccc1)C(F)(F)F)c1ccncc1 (configuration not stated) ? inactive

Answer briefly: the call reported for C=C(C)c1nc(C#N)c(N)o1 in this assay. inactive

For COc1cccc2cc(C(N)=O)c(=N)oc12 , which call appears in the assay record? inactive

Test call, this compound: CC(C)(C)NC(=S)N/N=C/c1ccccn1 active

Hi, do you know how COC(=O)c1cc(C)ccc1CC(Cc1cccc(C)c1)C(=O)OC (configuration not stated) came out in this test? inactive

Can you look up the reported call for NC(=S)N/N=C1\C(=O)Nc2c(Cl)cc(Cl)cc21 for me? inactive

Record lookup: outcome of this test for COC(=O)C1(Cc2ccc3c(c2)CCC3)Cc2cc3c(cc2C1)CCC3 ? inactive

Record lookup: outcome of this test for NNC(=O)c1cccc2c1Oc1ccccc1S2 ? inactive

# fetch the recorded call for O=C1Nc2nccnc2C(=O)N2CCC[C@@H]12 here inactive

Tell me the assay call for CN(C)CC1CCCc2ccccc2C1=O (configuration not stated) please. inactive
